The reported numbers originate from PubChem BioAssay AID651599.

systemUnderTest: Tumor susceptibility gene 101 protein (Homo sapiens) (UniProt Q99816)
Sequence (Q99816 whole entry, looked up): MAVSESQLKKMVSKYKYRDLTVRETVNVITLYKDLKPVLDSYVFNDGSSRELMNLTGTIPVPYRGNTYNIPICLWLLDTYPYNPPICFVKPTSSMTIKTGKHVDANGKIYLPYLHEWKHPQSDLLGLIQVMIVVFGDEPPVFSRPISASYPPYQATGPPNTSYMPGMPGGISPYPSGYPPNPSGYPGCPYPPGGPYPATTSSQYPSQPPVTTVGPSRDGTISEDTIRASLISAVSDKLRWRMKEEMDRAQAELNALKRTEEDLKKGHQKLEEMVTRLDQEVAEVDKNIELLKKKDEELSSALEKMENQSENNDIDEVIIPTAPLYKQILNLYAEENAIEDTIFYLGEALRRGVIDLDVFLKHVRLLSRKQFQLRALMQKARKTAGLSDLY
assayInfo: qHTS Assay for Iinhibitors of HIV-1 Budding by Blocking the Interaction of PTAP/TSG101: Hit Validation in TR assay
assayContext: Tsg101 binding domain + Texas Red-labeled PTAP peptide, fluorescence polarization, 20 min; series mostly up to 57.5 µM
Inconclusive results are not listed. Calls of active or inactive are those of the source. The call rests on the fitted dose curve; in most records, active means well fitted inhibition curve with a large enough effect; inconclusive means small, poorly fitted or top-dose-only effect; inactive means no such curve, though single readings can be large or run the other way.
Your answer must be one of the following: 1 (yes) for active, 0 (no) for inactive

Answered cases to consult:
CCOC(=O)C1CCCN(c2ccc([N+](=O)[O-])c3nonc23)C1 (centres undefined) = 0 (no)
CCN(CC)c1ccc(N=Cc2c(O)n(-c3ccc(OC)cc3)c(=O)[nH]c2=O)cc1 = 0 (no)
COc1cccc2c1C(=O)c1c(O)c3c(c(O)c1C2=O)CC(O)(C(C)=NO)CC3OC1CC(N)C(O)C(C)O1 (centres undefined) = 0 (no)
CC(C)C[C@H]1C(=O)N2CCCC2[C@]2(O)O[C@](NC(=O)[C@@H]3C=C4c5cccc6[nH]cc(c56)CC4N(C)C3)(C(C)C)C(=O)N12 (some centres undefined) = 0 (no)

QUERY: What was the test verdict on C#CCN1C(=O)S/C(=C\c2ccc(N3CCOCC3)cc2C)C1=O ?
RESULT: 0 (no)

QUERY: Now the compound Nc1ccc2nonc2c1[N+](=O)[O-]
RESULT: 0 (no)

QUERY: Now the compound CC(C)C[C@H]1C(=O)N2CCC[C@H]2[C@]2(O)O[C@](NC(=O)[C@@H]3C=C4c5cccc6[nH]cc(c56)C[C@H]4N(C)C3)(C(C)C)C(=O)N12
RESULT: 0 (no)

* * *

systemUnderTest: Tumor susceptibility gene 101 protein (Homo sapiens)
assayInfo: qHTS Assay for Iinhibitors of HIV-1 Budding by Blocking the Interaction of PTAP/TSG101: Hit Validation in TR assay
assayContext: Tsg101 binding domain + Texas Red-labeled PTAP peptide, fluorescence polarization, 20 min; series mostly up to 57.5 µM
Inconclusive results are not listed. Activity calls are given as the source filed them. Calls follow the shape of the dose curve; as a rule, active = well fitted inhibition curve with a large enough effect; inconclusive = small, poorly fitted or top-dose-only effect; inactive = no such curve, though single readings can be large or run the other way.
Your answer must be one of the following: Y (active), N (inactive)

Answered cases to consult:
CN1CC=C2C(C#N)=C(N)C(C#N)(C#N)C(c3ccncc3)C2C1 (configuration not stated) = N
CN1CCN(c2ccc([N+](=O)[O-])c3no[n+]([O-])c23)CC1 = N
CCN(CC)C(=O)Cn1cc(C=C2C(=O)N(C)C(=O)N(C)C2=O)c2ccccc21 = N
Nc1ccc2ccc3cccc[n+]3c2c1 = Y
CC1=NCCc2c1[nH]c1cc(O)ccc21 = N

QUERY: What was the test verdict on Cc1cc(N2CCCC2)ccc1C=C(C#N)C#N ?
RESULT: N

QUERY: Now the compound Nc1cc2nc3ccccc3nc2cc1N
RESULT: N
